- EXPERIMENT_SUMMARY: metabolic stability in liver microsomes
- Format: in vitro ADME, mouse
- MEASUREMENT_PARAMETERS: mouse, +Cofactors, 60 min
VALUE_TYPE: Remaining percentage (%)

| MOLECULE | Remaining percentage / % |
| --- | --- |
| O=C(O)CC[C@@H](NC(=O)Nc1ccc(C(F)(F)F)cc1)C(=O)O [SSA 3] | 98.27 |
| O=C(O)CC[C@H](NC(=O)Nc1ccc(C(F)(F)F)cc1)C(=O)O [SSA 2] | 102.31 |
| O=C(O)CC[C@H](NC(=O)Nc1ccc(C(F)(F)F)cc1)C(=O)O [SSA 1] | 105.07 |
| O=C(O)CC[C@H](NC(=O)Nc1ccc(Br)cc1)C(=O)O [SSA 9] | 103.16 |

---

- EXPERIMENT_SUMMARY: tensiometry: critical aggregate concentration (CAC) and surface tension
- Assay type: physicochemical
- MEASUREMENT_PARAMETERS: H2O 5.0% EtOH, 298 K
VALUE_TYPE: ST at CAC (mN m^−1)

Here is how some compounds turned out for ST at CAC.
| COMPOUND | ST at CAC [mN m^−1] |
| --- | --- |
| O=C(O)CC[C@H](NC(=O)Nc1ccc(C(F)(F)F)cc1)C(=O)O [SSA 2] | 37 |
| O=C(O)CC[C@H](NC(=O)Nc1ccc(Br)cc1)C(=O)O | 41 |

a: O=C(O)CC[C@H](NC(=O)Nc1ccc(C(F)(F)F)cc1)C(=O)O [SSA 1]
b: COc1ccc(NC(=O)N[C@@H](CCC(=O)O)C(=O)O)cc1
Problem: Just curious, which one has the larger ST at CAC reading, a or b ? Bench note: the answer is the label of the chosen record.
Solution: b

---

- EXPERIMENT_SUMMARY: metabolic stability in liver microsomes
- Type: in vitro ADME, rat
- MEASUREMENT_PARAMETERS: rat liver microsomes, 1 µM, 0.5 mg protein/mL; read-out: in vitro CLint
VALUE_TYPE: microsomal CLint at 1 µM

Check out these entries, answers already filled in.
| SUBSTANCE_SMILES | microsomal CLint at 1 µM |
| --- | --- |
| O=C(O)CC[C@@H](NC(=O)Nc1ccc(C(F)(F)F)cc1)C(=O)O | < 7.5 µL/min/mg |
| O=C(O)CC[C@H](NC(=O)Nc1ccc(C(F)(F)F)cc1)C(=O)O | < 7.5 µL/min/mg |

Alright, here's another compound for you.
Problem: Entry "O=C(O)CC[C@H](NC(=O)Nc1ccc(Br)cc1)C(=O)O" : reported microsomal CLint at 1 µM = ?
Solution: < 7.5 µL/min/mg

---

- EXPERIMENT_SUMMARY: protein binding in human plasma by equilibrium dialysis
- Format: in vitro ADME
- MEASUREMENT_PARAMETERS: human plasma, 5 µM, 37 °C
VALUE_TYPE: remaining at 6 h, 5 µM (%)
// units = %; emit number, no label

Problem: Any idea what remaining at 6 h, 5 µM was measured for CC(=O)N1CCN(c2ccc(OCC3COC(Cn4ccnc4)(c4ccc(Cl)cc4Cl)O3)cc2)CC1 (stereo not shown) [Ketoconazole, reference compound] ?
Solution: 101

---

- EXPERIMENT_SUMMARY: protein binding in human plasma by equilibrium dialysis
- Assay type: in vitro ADME
- MEASUREMENT_PARAMETERS: human, human plasma, 5 µM, 6 hours, 37 °C
- Description: Metabolic stability was assessed in mouse and rat liver microsomes. […] A plasma protein binding assay was performed to assess the extent of compound binding to plasma proteins. […] Samples were analysed using a Shimadzu liquid chromatography system coupled to a Triple Quad 6500+ mass spectrometry (AB Inc.) Separation of compounds was achieved using an HSS T3 column (50 x 2.1 mm) at a temperature of 40 °C and a binary mobile phase gradient at a flow rate of 0.7 mL/min. […]
VALUE_TYPE: recovery at 6 h, 5 µM (%)

| COMPOUND | QUANTITATIVE_RESULT |
| --- | --- |
| O=C(O)CC[C@@H](NC(=O)Nc1ccc(C(F)(F)F)cc1)C(=O)O [SSA 3] | 99.6 |
| O=C(O)CC[C@H](NC(=O)Nc1ccc(Br)cc1)C(=O)O [SSA 9] | 94.9 |
| O=C(O)CC[C@H](NC(=O)Nc1ccc(C(F)(F)F)cc1)C(=O)O [SSA 1] | 97.3 |

---

- EXPERIMENT_SUMMARY: metabolic stability in liver microsomes
- Assay type: in vitro ADME, mouse
- MEASUREMENT_PARAMETERS: mouse liver microsomes, 1 µM, 0.5 mg protein/mL; read-out: in vitro CLint
VALUE_TYPE: microsomal CLint at 1 µM

| SUBSTANCE_SMILES | VALUE_TYPE | RESULT |
| --- | --- | --- |
| O=C(O)CC[C@@H](NC(=O)Nc1ccc(C(F)(F)F)cc1)C(=O)O | microsomal CLint at 1 µM | < 7.5 µL/min/mg |
| O=C(O)CC[C@H](NC(=O)Nc1ccc(Br)cc1)C(=O)O | microsomal CLint at 1 µM | < 7.5 µL/min/mg |

Now look at this one.
Problem: Entry "O=C(O)CC[C@H](NC(=O)Nc1ccc(C(F)(F)F)cc1)C(=O)O" has what microsomal CLint at 1 µM?
Solution: < 7.5 µL/min/mg
